TARGET SYSTEM: Recombinant IKKβ (Homo sapiens, UniProt O14920)
Construct: purchased Millipore, Dundee, UK
MEASUREMENT PROTOCOL: DELFIA IKKβ kinase assay (apparent Ki, Cheng-Prusoff)
Type: biochemical
TEST SETTINGS: non-italicised figure: DELFIA assay
Description: IKKα and IKKβ inhibitory activity was determined using three different assays: a dissociation enhanced ligand fluorescent immunoassay (DELFIA) based on the protocol of HTScan™ IKKβ Kinase Assay (Cell Signaling Technology, USA); an Adapta IKKα assay (performed by Life Technologies); a Z′-LYTE™ IKKβ assay (performed by Life Technologies). […]
PROPERTY MEASURED: Ki (µM)

Worked set:
INPUT SMILES | Ki (µM)
CC(C)(C)CCc1cc(-c2ccnc(N)c2)cc2c(N)n[nH]c12 | 0.318
Nc1cc(-c2cc(-c3ccccc3Cl)c3[nH]nc(N)c3c2)ccn1 | 1.76
CC(C)(O)CCC#Cc1c(-c2ccc3[nH]nc(N)c3c2)ccnc1N | 0.39

[I] Nc1nccc(-c2ccc3[nH]nc(N)c3c2)c1C#CCCC(=O)N1CCOCC1
[II] CCCNC(=O)Nc1cc(-c2ccc3[nH]nc(N)c3c2)ccn1
[III] CC(C)(C)C#Cc1cc(-c2ccnc(NC(=O)C3CCCC3)c2)cc2c(N)n[nH]c12
[IV] Nc1n[nH]c2ccc(-c3ccnc(NC(=O)Nc4cccc(OCc5ccc(F)cc5)c4)c3)cc12
Given 4 compounds, produce a descending ranking by Ki. # answer = labels listed in requested order
III, II, IV, I

----------
TARGET SYSTEM: Recombinant IKKβ (Homo sapiens)
Construct: purchased Millipore, Dundee, UK
Sequence (O14920 1-756): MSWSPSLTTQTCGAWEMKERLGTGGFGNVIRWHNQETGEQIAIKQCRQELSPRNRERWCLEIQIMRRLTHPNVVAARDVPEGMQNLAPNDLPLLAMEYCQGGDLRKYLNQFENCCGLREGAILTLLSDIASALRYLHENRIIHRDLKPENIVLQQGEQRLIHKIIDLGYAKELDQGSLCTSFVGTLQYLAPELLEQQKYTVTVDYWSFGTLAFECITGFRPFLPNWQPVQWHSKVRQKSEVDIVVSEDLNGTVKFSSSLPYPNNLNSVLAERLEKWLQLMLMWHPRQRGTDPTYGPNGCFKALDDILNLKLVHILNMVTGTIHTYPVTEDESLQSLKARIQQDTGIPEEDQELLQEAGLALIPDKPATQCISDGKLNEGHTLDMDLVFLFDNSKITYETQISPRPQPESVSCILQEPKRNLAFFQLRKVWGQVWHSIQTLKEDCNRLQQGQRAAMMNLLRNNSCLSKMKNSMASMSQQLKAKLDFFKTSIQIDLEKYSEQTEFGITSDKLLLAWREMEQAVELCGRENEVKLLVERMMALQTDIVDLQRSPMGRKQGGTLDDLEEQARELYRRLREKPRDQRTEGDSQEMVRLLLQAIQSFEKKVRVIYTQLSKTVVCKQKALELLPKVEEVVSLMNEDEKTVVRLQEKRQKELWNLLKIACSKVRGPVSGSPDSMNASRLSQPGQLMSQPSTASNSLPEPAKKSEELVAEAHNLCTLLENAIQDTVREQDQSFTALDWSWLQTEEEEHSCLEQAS
MEASUREMENT PROTOCOL: DELFIA IKKβ kinase assay (apparent Ki, Cheng-Prusoff)
Assay type: biochemical
TEST SETTINGS: non-italicised figure: DELFIA assay
pKi: −log10 of the molar value.
PROPERTY MEASURED: pKi

Recorded pKi, per entry:
COMPOUND | pKi
CC1(C#Cc2cc(-c3ccnc(N)c3)cc3c(N)n[nH]c23)COC1 [Example 141] | 6.42
CNC(=O)Nc1cc(-c2cc(C#CC(C)(C)C)c3[nH]nc(N)c3c2)ccn1 [Example 186] | 5.46
Nc1cc(-c2cc(-c3ccccc3CO)c3[nH]nc(N)c3c2)ccn1 [Example 125] | 6.10

[P] CC(C)CCNc1cc(-c2ccc3[nH]nc(N)c3c2)ccn1 [Example 16]
[Q] CC(C)CCNC(=O)Nc1cc(-c2ccc3[nH]nc(N)c3c2)ccn1 [Example 38]
[R] CCOC(=O)c1cccc(-c2cc(-c3ccnc(N)c3)cc3c(N)n[nH]c23)c1 [Example 112]
[S] COC(=O)Nc1cc(-c2cc(C#CC(C)(C)OC)c3[nH]nc(N)c3c2)ccn1 [Example 182]
Rank entries according to their pKi, from the largest number down. Present the labels in the sequence the task asks for.
S, P, R, Q
(S: 6.44, P: 6.08, R: 5.83, Q: 5.38)
